- System: SNB-19 CNS
- assayMethodText: NCI tumour cell line growth inhibition, 48 h
measurementType: TGI

These solved cases illustrate the format of a correct answer.
>>> result("c1ccc(-c2cc3n4c(-c5ccccc5)nn(-c5ccccc5)c4cnc-3n2)cc1")
"> 50 µM"
>>> result("Cn1cccc1-c1cc(-c2ccccc2)nc(N)c1C#N")
"> 100 µM"
>>> result("O=C1Nc2ccccc2SC1=C(C(=O)c1ccccc1)C(=O)c1ccccc1")
"> 100 µM"

Take each entry in turn and give its TGI.
1. COC(=O)C(C)Oc1ccc(O)cc1 (stereo not given)
2. O=C(/C=C/c1ccc(Cl)cc1Cl)c1ccc(Cl)cc1Cl
3. CCOC(=O)CC(C)C1(C=O)CCCCC1=O (stereo not given)
4. CN(C)C(=S)/N=c1\ss/c(=N\S(=O)(=O)c2ccccc2)n1C
5. CCCCCCCCCCOc1ccc(N=Nc2nnc(-c3ccc(OCCCCC)cc3)s2)cc1

Solution:
> 100 µM
> 100 µM
> 100 µM
> 100 µM
> 100 µM

The reported measurements were obtained from PubChem BioAssay (NCI).
